- TARGET: T1, human IL-6 (human, UniProt P05231 30-212)
- T1 construct: IL-6 flowed over captured antibodies
- T1 sequence (P05231 30-212 limits assumed): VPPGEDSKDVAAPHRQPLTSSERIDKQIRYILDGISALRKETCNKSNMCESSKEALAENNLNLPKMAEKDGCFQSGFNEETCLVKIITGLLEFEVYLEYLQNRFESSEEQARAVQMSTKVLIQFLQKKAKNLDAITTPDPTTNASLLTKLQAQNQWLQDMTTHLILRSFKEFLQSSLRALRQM
- METHOD: SPR Biacore, supernatant Ab on Protein A chip, 37 C
ENDPOINT_NAME: kon
Remember to quote the unit after the number.

Task item: Fill in the blank: the reported kon of anti-IL-6 antibody, heavy chain WT / light chain M32L, M50D, N52S, M88Q (antibody, IgG1, V domains shown, Full IgG1 (Expi293); VL = variant III) VH: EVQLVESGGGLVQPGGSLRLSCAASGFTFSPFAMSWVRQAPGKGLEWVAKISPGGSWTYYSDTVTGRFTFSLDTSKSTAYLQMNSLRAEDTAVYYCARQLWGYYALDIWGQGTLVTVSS VL: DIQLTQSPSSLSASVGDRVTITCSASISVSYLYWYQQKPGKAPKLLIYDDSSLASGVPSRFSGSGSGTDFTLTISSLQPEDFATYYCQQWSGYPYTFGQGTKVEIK is ____.
Reply: 677000 M⁻¹ s⁻¹

Task item: Fill in the blank: the reported kon of anti-IL-6 antibody, heavy chain I51E, G66D / light chain M32L, M50D, N52S, M88Q (antibody, IgG1, V domains shown, Full IgG1 (Expi293); VL = variant III) VH: EVQLVESGGGLVQPGGSLRLSCAASGFTFSPFAMSWVRQAPGKGLEWVAKESPGGSWTYYSDTVTDRFTFSLDTSKSTAYLQMNSLRAEDTAVYYCARQLWGYYALDIWGQGTLVTVSS VL: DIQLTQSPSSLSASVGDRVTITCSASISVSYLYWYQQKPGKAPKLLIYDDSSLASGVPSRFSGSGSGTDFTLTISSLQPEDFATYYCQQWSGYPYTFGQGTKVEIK is ____.
Reply: 914000 M⁻¹ s⁻¹

Task item: Fill in the blank: the reported kon of anti-IL-6 antibody, heavy chain S35T, G66D / light chain M32L, M50D, N52S, M88Q (antibody, IgG1, V domains shown, Full IgG1 (Expi293); VL = variant III) VH: EVQLVESGGGLVQPGGSLRLSCAASGFTFSPFAMTWVRQAPGKGLEWVAKISPGGSWTYYSDTVTDRFTFSLDTSKSTAYLQMNSLRAEDTAVYYCARQLWGYYALDIWGQGTLVTVSS VL: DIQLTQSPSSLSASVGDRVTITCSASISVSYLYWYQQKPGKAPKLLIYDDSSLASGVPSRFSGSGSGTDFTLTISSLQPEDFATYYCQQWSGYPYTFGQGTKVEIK is ____.
Reply: 1.43e+06 M⁻¹ s⁻¹

Task item: Fill in the blank: the reported kon of anti-IL-6 antibody, heavy chain T63L, G66D / light chain M32L, M50D, N52S, M88Q (antibody, IgG1, V domains shown, Full IgG1 (Expi293); VL = variant III) VH: EVQLVESGGGLVQPGGSLRLSCAASGFTFSPFAMSWVRQAPGKGLEWVAKISPGGSWTYYSDLVTDRFTFSLDTSKSTAYLQMNSLRAEDTAVYYCARQLWGYYALDIWGQGTLVTVSS VL: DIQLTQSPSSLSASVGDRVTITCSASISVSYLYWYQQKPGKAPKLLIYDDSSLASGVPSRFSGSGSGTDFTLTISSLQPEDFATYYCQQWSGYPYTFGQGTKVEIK is ____.
Reply: 1.6e+06 M⁻¹ s⁻¹
